# Target: Substance-K receptor (Rattus norvegicus) (UniProt P16610)
# Protocol Summary: Compound was evaluated for antagonism of contractile response of rat colon muscularis mucosae (RC) at tachykinin receptor 2
# Assay type: functional, tissue-based
# Cond: Muscularis mucosa
So I've got a bunch of molecules here, and I need their pKB values.

CCCC[C@H](NC(=O)[C@@H]1CCCN1C(=O)[C@H]1CCCN1C(=O)[C@H](Cc1ccccc1)NC(=O)[C@@H](Cc1c[nH]c2ccccc12)NC(=O)[C@H](C)NC(=O)[C@@H](CCCN=C(N)N)NC(=O)OC(C)(C)C)C(N)=O :: 5.2

For the next question, use this molecule.
# input Give the measured pKB of `CCCC[C@H](NC(=O)[C@H](CC(C)C)NC(=O)[C@@H](Cc1c[nH]c2ccccc12)NC(=O)[C@H](Cc1ccccc1)NC(=O)[C@@H](Cc1c[nH]c2ccccc12)NC(=O)[C@H](CCC(N)=O)NC(=O)[C@H](CCCN=C(N)N)NC(=O)OC(C)(C)C)C(N)=O` .
# output 6.5

---

# Target: Substance-K receptor (Rattus norvegicus) (UniProt P16610)
# Protocol Summary: Compound was evaluated for antagonism of contractile response of rat colon muscularis mucosae (RC) at tachykinin receptor 2
# Type: functional, tissue-based
# Cond: Muscularis mucosa
Reported Endpoint: pKB

Consider the worked cases shown below.
CCCC[C@H](NC(=O)[C@@H]1CCCN1C(=O)[C@H]1CCCN1C(=O)[C@H](Cc1ccccc1)NC(=O)[C@@H](C)NC(=O)[C@H](C)NC(=O)[C@H](CCCN=C(N)N)NC(=O)OC(C)(C)C)C(N)=O :: 5.6
CCCC[C@H](NC(=O)[C@@H]1CCCN1C(=O)[C@H]1CCCN1C(=O)[C@H](Cc1ccccc1)NC(=O)[C@H](Cc1ccccc1)NC(=O)[C@H](C)NC(=O)[C@@H](N)CCCN=C(N)N)C(N)=O :: < 4.6
CCCC[C@H](NC(=O)[C@@H]1CCCN1C(=O)[C@H]1CCCN1C(=O)[C@H](Cc1ccccc1)NC(=O)[C@@H](Cc1c[nH]c2ccccc12)NC(=O)[C@H](C)NC(=O)[C@H](CCC(=O)OCc1ccccc1)NC(=O)OC(C)(C)C)C(N)=O :: 7.4

Hey, can you go through the list below and give me pKB for every item?
1. CCCC[C@H](NC(=O)[C@H](CC(C)C)NC(=O)[C@@H](Cc1c[nH]c2ccccc12)NC(=O)[C@H](Cc1ccccc1)NC(=O)[C@@H](Cc1c[nH]c2ccccc12)NC(=O)[C@H](C)NC(=O)[C@@H](N)CCCN=C(N)N)C(N)=O
2. CCCC[C@H](NC(=O)[C@@H]1CCCN1C(=O)[C@H]1CCCN1C(=O)[C@H](Cc1ccccc1)NC(=O)[C@@H](Cc1c[nH]c2ccccc12)NC(=O)[C@H](C)NC(=O)[C@H](CCCN=C(N)N)NC(=O)OC(C)(C)C)C(N)=O

# output
1: 6.2; 2: 8.2

---

# Target: Substance-K receptor (Rattus norvegicus) (UniProt P16610)
# Sequence (whole entry): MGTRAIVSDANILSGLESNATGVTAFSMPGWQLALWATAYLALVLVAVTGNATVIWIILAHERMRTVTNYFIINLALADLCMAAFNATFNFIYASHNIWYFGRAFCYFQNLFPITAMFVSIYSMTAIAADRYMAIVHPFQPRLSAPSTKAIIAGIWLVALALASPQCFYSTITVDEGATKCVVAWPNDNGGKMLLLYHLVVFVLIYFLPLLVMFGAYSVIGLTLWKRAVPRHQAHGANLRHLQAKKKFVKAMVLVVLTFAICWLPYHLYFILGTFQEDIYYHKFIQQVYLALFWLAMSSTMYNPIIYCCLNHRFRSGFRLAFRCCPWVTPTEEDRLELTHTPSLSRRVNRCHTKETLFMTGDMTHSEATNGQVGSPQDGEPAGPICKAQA
# Protocol Summary: Compound was evaluated for antagonism of contractile response of rat colon muscularis mucosae (RC) at Tachykinin receptor 2
# Type: functional, tissue-based
# Cond: Muscularis mucosa
So I've got a bunch of compounds here, and I need their pKB values.
Answers are plain numbers.

CCCC[C@H](NC(=O)[C@@H]1CCCN1C(=O)[C@H]1CCCN1C(=O)[C@H](Cc1ccccc1)NC(=O)[C@@H](Cc1c[nH]c2ccccc12)NC(=O)[C@H](C)NC(=O)[C@H](N)CCC(=O)OCc1ccccc1)C(N)=O :: 7.2
CCCC[C@H](NC(=O)[C@@H]1CCCN1C(=O)[C@H]1CCCN1C(=O)[C@H](Cc1ccccc1)NC(=O)[C@@H](Cc1c[nH]c2ccccc12)NC(=O)[C@H](C)NC(=O)[C@H](CCC(N)=O)NC(=O)OC(C)(C)C)C(N)=O :: 7.9
CCCC[C@H](NC(=O)C1CCCN1C(=O)[C@H]1CCCN1C(=O)[C@H](Cc1ccccc1)NC(=O)[C@@H](Cc1c[nH]c2ccccc12)NC(=O)CCCCNC(=O)OC(C)(C)C)C(N)=O (stereo not given in full) :: 7.6
CCCC[C@H](NC(=O)[C@@H]1CCCN1C(=O)[C@H]1CCCN1C(=O)[C@H](Cc1ccccc1)NC(=O)[C@@H](Cc1c[nH]c2ccccc12)NC(=O)[C@H](C)NC(=O)[C@H](CCC(=O)O)NC(=O)OC(C)(C)C)C(N)=O :: 6.5

For the next question, use this compound.
# input Give the measured pKB of `CCCC[C@H](NC(=O)[C@@H]1CCCN1C(=O)[C@H]1CCCN1C(=O)[C@H](Cc1ccccc1)NC(=O)[C@@H](Cc1c[nH]c2ccccc12)NC(=O)[C@H](C)NC(=O)[C@H](C)NC(=O)OC(C)(C)C)C(N)=O` .
# output 9.3

---

# Target: Substance-P receptor (Cavia porcellus)
# Protocol Summary: Compound was evaluated for antagonism of contractile response of guinea pig ileum longitudinal smooth muscle (GPI) at tachykinin receptor 1
# Assay type: functional, tissue-based
Reported Endpoint: pKB

Consider the worked cases shown below.
CSCC[C@H](NC(=O)[C@@H]1CCCN1C(=O)[C@H]1CCCN1C(=O)[C@H](Cc1ccccc1)NC(=O)[C@@H](Cc1c[nH]c2ccccc12)NC(=O)[C@H](C)NC(=O)[C@H](CCCN=C(N)N)NC(=O)OC(C)(C)C)C(N)=O :: < 4.5
CSCC[C@@H](NC(=O)[C@H](CC(C)C)NC(=O)[C@H]1CCCN1C(=O)[C@H](Cc1ccccc1)NC(=O)[C@@H](Cc1c[nH]c2ccccc12)NC(=O)[C@H](C)NC(=O)[C@@H](N)CCCN=C(N)N)C(N)=O :: < 4.6

# input Give the measured pKB of `CCCC[C@H](NC(=O)[C@@H]1CCCN1C(=O)[C@H]1CCCN1C(=O)[C@H](Cc1ccccc1)NC(=O)[C@H](Cc1c[nH]c2ccccc12)NC(=O)[C@H](C)NC(=O)[C@H](CCCN=C(N)N)NC(=O)OC(C)(C)C)C(N)=O` .
# output < 5

These data points were gathered from ChEMBL document CHEMBL1125477.
